Data credit: the supplement of paper PMC9112550

tested on: Escherichia coli TOP10; assay: shrunken log2 fold change of peptide-encoding DNA abundance (4.5 h post-induction vs induction); higher = less antimicrobial activity (less host growth inhibition); settings: time post-induction: 4.5 h; library: site-saturation at positions 5, 18, 19, 20
Everything with shrunken log2 fold change lower than -0.08 is Not met; everything else, including exactly -0.08, is Met.

{"residue sequence": "RRIRIRPPRLPRPRPRPRIWPRP", "class assignment": "Met"}
{"residue sequence": "RRIRLRPPRLPRPRPRPAWSPRP", "class assignment": "Met"}
{"residue sequence": "RRIRLRPPRLPRPRPRPTYLPRP", "class assignment": "Met"}
{"residue sequence": "RRIRRRPPRLPRPRPRPKAHPRP", "class assignment": "Met"}
{"residue sequence": "RRIRGRPPRLPRPRPRPQSYPRP", "class assignment": "Met"}
{"residue sequence": "RRIRARPPRLPRPRPRPYMKPRP", "class assignment": "Not met"}
{"residue sequence": "RRIRVRPPRLPRPRPRPLRQPRP", "class assignment": "Met"}
{"residue sequence": "RRIRRRPPRLPRPRPRPDWHPRP", "class assignment": "Met"}
{"residue sequence": "RRIRERPPRLPRPRPRPQYDPRP", "class assignment": "Not met"}
{"residue sequence": "RRIRVRPPRLPRPRPRPQPSPRP", "class assignment": "Met"}
{"residue sequence": "RRIRKRPPRLPRPRPRPKSTPRP", "class assignment": "Met"}
{"residue sequence": "RRIRRRPPRLPRPRPRPHFNPRP", "class assignment": "Not met"}
{"residue sequence": "RRIRPRPPRLPRPRPRPPTVPRP", "class assignment": "Met"}
{"residue sequence": "RRIRNRPPRLPRPRPRPMWCPRP", "class assignment": "Met"}
{"residue sequence": "RRIRIRPPRLPRPRPRPQIKPRP", "class assignment": "Not met"}
{"residue sequence": "RRIRYRPPRLPRPRPRPNNQPRP", "class assignment": "Not met"}
{"residue sequence": "RRIRPRPPRLPRPRPRPAKTPRP", "class assignment": "Not met"}
{"residue sequence": "RRIRSRPPRLPRPRPRPIVNPRP", "class assignment": "Not met"}
{"residue sequence": "RRIRDRPPRLPRPRPRPPEHPRP", "class assignment": "Met"}
{"residue sequence": "RRIRFRPPRLPRPRPRPPMMPRP", "class assignment": "Met"}

---

tested on: Escherichia coli TOP10; experiment: shrunken log2 fold change of peptide-encoding DNA abundance (4.5 h post-induction vs induction); higher = less antimicrobial activity (less host growth inhibition); conditions: time post-induction: 4.5 h; library: site-saturation at positions 5, 18, 19, 20
Everything with shrunken log2 fold change lower than -0.02 is false (0); everything else, including exactly -0.02, is true (1).

{"residue sequence": "RRIRTRPPRLPRPRPRPHKAPRP", "study system": "Escherichia coli TOP10", "class assignment": "false (0)"}
{"residue sequence": "RRIRVRPPRLPRPRPRPGFRPRP", "study system": "Escherichia coli TOP10", "class assignment": "true (1)"}
{"residue sequence": "RRIRGRPPRLPRPRPRPAVEPRP", "study system": "Escherichia coli TOP10", "class assignment": "true (1)"}
{"residue sequence": "RRIRPRPPRLPRPRPRPSVEPRP", "study system": "Escherichia coli TOP10", "class assignment": "true (1)"}
{"residue sequence": "RRIRCRPPRLPRPRPRPFNCPRP", "study system": "Escherichia coli TOP10", "class assignment": "false (0)"}
{"residue sequence": "RRIRARPPRLPRPRPRPPALPRP", "study system": "Escherichia coli TOP10", "class assignment": "true (1)"}
{"residue sequence": "RRIRVRPPRLPRPRPRPFVDPRP", "study system": "Escherichia coli TOP10", "class assignment": "false (0)"}
{"residue sequence": "RRIRPRPPRLPRPRPRPDNQPRP", "study system": "Escherichia coli TOP10", "class assignment": "false (0)"}
{"residue sequence": "RRIRVRPPRLPRPRPRPIYKPRP", "study system": "Escherichia coli TOP10", "class assignment": "false (0)"}
{"residue sequence": "RRIRGRPPRLPRPRPRPQASPRP", "study system": "Escherichia coli TOP10", "class assignment": "true (1)"}
{"residue sequence": "RRIRTRPPRLPRPRPRPYSMPRP", "study system": "Escherichia coli TOP10", "class assignment": "false (0)"}

---

Below, each of the sequences is paired with its reported shrunken log2 fold change value.
system: Escherichia coli TOP10; assay: shrunken log2 fold change of peptide-encoding DNA abundance (4.5 h post-induction vs induction); higher = less antimicrobial activity (less host growth inhibition); conditions: time post-induction: 4.5 h; library: site-saturation at positions 5, 18, 19, 20

{"residue sequence": "RRIRFRPPRLPRPRPRPQNYPRP", "study system": "Escherichia coli TOP10", "shrunken log2 fold change": -0.502}
{"residue sequence": "RRIRYRPPRLPRPRPRPQTWPRP", "study system": "Escherichia coli TOP10", "shrunken log2 fold change": -0.573}
{"residue sequence": "RRIRERPPRLPRPRPRPHFNPRP", "study system": "Escherichia coli TOP10", "shrunken log2 fold change": -0.744}
{"residue sequence": "RRIRCRPPRLPRPRPRPHIVPRP", "study system": "Escherichia coli TOP10", "shrunken log2 fold change": -0.325}

---

system: Escherichia coli TOP10; experiment: shrunken log2 fold change of peptide-encoding DNA abundance (4.5 h post-induction vs induction); higher = less antimicrobial activity (less host growth inhibition); details: time post-induction: 4.5 h; library: site-saturation at positions 5, 18, 19, 20
Note: every record was labeled by where its shrunken log2 fold change sits among low band: < 0.001; middle band: ≥ 0.001 and < 0.1; high band: ≥ 0.1

{"residue sequence": "RRIRQRPPRLPRPRPRPPFYPRP", "class assignment": "low band"}
{"residue sequence": "RRIRARPPRLPRPRPRPKIWPRP", "class assignment": "high band"}
{"residue sequence": "RRIRPRPPRLPRPRPRPSMPPRP", "class assignment": "low band"}
{"residue sequence": "RRIRLRPPRLPRPRPRPPFVPRP", "class assignment": "middle band"}
{"residue sequence": "RRIRCRPPRLPRPRPRPLMMPRP", "class assignment": "high band"}
{"residue sequence": "RRIRMRPPRLPRPRPRPLESPRP", "class assignment": "high band"}
{"residue sequence": "RRIRGRPPRLPRPRPRPEVIPRP", "class assignment": "middle band"}
{"residue sequence": "RRIRKRPPRLPRPRPRPSCDPRP", "class assignment": "high band"}
{"residue sequence": "RRIRKRPPRLPRPRPRPQTVPRP", "class assignment": "middle band"}
{"residue sequence": "RRIRWRPPRLPRPRPRPNKNPRP", "class assignment": "low band"}

---

Below, each of the sequences is paired with its reported shrunken log2 fold change value.
system: Escherichia coli TOP10; assay: shrunken log2 fold change of peptide-encoding DNA abundance (4.5 h post-induction vs induction); higher = less antimicrobial activity (less host growth inhibition); conditions: time post-induction: 4.5 h; library: site-saturation at positions 5, 18, 19, 20;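 also: peptides expressed intracellularly from a pBAD plasmid library in pooled LB shake-flask culture, induced with 0.3% L-arabinose, DNA abundance read by NGS, three biological replicates, DESeq2 with apeglm shrinkage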
property name: shrunken log2 fold change

{"residue sequence": "RRIRVRPPRLPRPRPRPDLEPRP", "property name": "shrunken log2 fold change", "observed measurement": -0.0782}
{"residue sequence": "RRIRRRPPRLPRPRPRPPTFPRP", "property name": "shrunken log2 fold change", "observed measurement": 0.0767}
{"residue sequence": "RRIRTRPPRLPRPRPRPQQDPRP", "property name": "shrunken log2 fold change", "observed measurement": -0.18}
{"residue sequence": "RRIRSRPPRLPRPRPRPPTPPRP", "property name": "shrunken log2 fold change", "observed measurement": 0.63}
{"residue sequence": "RRIRIRPPRLPRPRPRPSVAPRP", "property name": "shrunken log2 fold change", "observed measurement": 0.011}
{"residue sequence": "RRIRFRPPRLPRPRPRPLTCPRP", "property name": "shrunken log2 fold change", "observed measurement": -0.182}
{"residue sequence": "RRIRERPPRLPRPRPRPCEIPRP", "property name": "shrunken log2 fold change", "observed measurement": -0.318}
{"residue sequence": "RRIRNRPPRLPRPRPRPHLRPRP", "property name": "shrunken log2 fold change", "observed measurement": -0.447}
{"residue sequence": "RRIRCRPPRLPRPRPRPSESPRP", "property name": "shrunken log2 fold change", "observed measurement": 0.258}
{"residue sequence": "RRIRPRPPRLPRPRPRPFGIPRP", "property name": "shrunken log2 fold change", "observed measurement": -0.21}
{"residue sequence": "RRIRMRPPRLPRPRPRPPGLPRP", "property name": "shrunken log2 fold change", "observed measurement": 0.702}
{"residue sequence": "RRIRARPPRLPRPRPRPAYGPRP", "property name": "shrunken log2 fold change", "observed measurement": 0.0552}
{"residue sequence": "RRIRNRPPRLPRPRPRPMDVPRP", "property name": "shrunken log2 fold change", "observed measurement": 0.0039}
{"residue sequence": "RRIRQRPPRLPRPRPRPTWCPRP", "property name": "shrunken log2 fold change", "observed measurement": 0.171}
{"residue sequence": "RRIRPRPPRLPRPRPRPMQGPRP", "property name": "shrunken log2 fold change", "observed measurement": -0.146}
{"residue sequence": "RRIRARPPRLPRPRPRPMTEPRP", "property name": "shrunken log2 fold change", "observed measurement": 0.356}
{"residue sequence": "RRIRYRPPRLPRPRPRPIGEPRP", "property name": "shrunken log2 fold change", "observed measurement": -0.135}
{"residue sequence": "RRIRCRPPRLPRPRPRPKAWPRP", "property name": "shrunken log2 fold change", "observed measurement": 0.132}
{"residue sequence": "RRIRERPPRLPRPRPRPQVHPRP", "property name": "shrunken log2 fold change", "observed measurement": -0.445}
{"residue sequence": "RRIRPRPPRLPRPRPRPKSYPRP", "property name": "shrunken log2 fold change", "observed measurement": -0.0208}
{"residue sequence": "RRIRNRPPRLPRPRPRPSHFPRP", "property name": "shrunken log2 fold change", "observed measurement": -0.647}
{"residue sequence": "RRIRVRPPRLPRPRPRPSRSPRP", "property name": "shrunken log2 fold change", "observed measurement": 0.0405}
{"residue sequence": "RRIRMRPPRLPRPRPRPHNHPRP", "property name": "shrunken log2 fold change", "observed measurement": -0.239}
{"residue sequence": "RRIRFRPPRLPRPRPRPKIKPRP", "property name": "shrunken log2 fold change", "observed measurement": -0.431}
{"residue sequence": "RRIRHRPPRLPRPRPRPLSMPRP", "property name": "shrunken log2 fold change", "observed measurement": -0.396}
{"residue sequence": "RRIRIRPPRLPRPRPRPFTVPRP", "property name": "shrunken log2 fold change", "observed measurement": -0.214}
{"residue sequence": "RRIRARPPRLPRPRPRPCRAPRP", "property name": "shrunken log2 fold change", "observed measurement": 0.261}
{"residue sequence": "RRIRTRPPRLPRPRPRPEIAPRP", "property name": "shrunken log2 fold change", "observed measurement": -0.11}
{"residue sequence": "RRIRNRPPRLPRPRPRPLMQPRP", "property name": "shrunken log2 fold change", "observed measurement": -0.0301}
{"residue sequence": "RRIRCRPPRLPRPRPRPYVIPRP", "property name": "shrunken log2 fold change", "observed measurement": -0.381}
{"residue sequence": "RRIRNRPPRLPRPRPRPAKCPRP", "property name": "shrunken log2 fold change", "observed measurement": -0.384}
{"residue sequence": "RRIRFRPPRLPRPRPRPWWMPRP", "property name": "shrunken log2 fold change", "observed measurement": -0.168}
{"residue sequence": "RRIRNRPPRLPRPRPRPVVVPRP", "property name": "shrunken log2 fold change", "observed measurement": -0.11}
